Molecular target: wild-type RT of HIV-1 (Human immunodeficiency virus type 1 group M subtype B, UniProt P04585)
Assay: biochemical
Type: biochemical
Settings: wild-type RT, versus dATP
What Selectivity = (kpol/Kd) natural nucleotide/(kpol/Kd) nucleotide analogue (discrimination) was measured for each of the following?
Form: value (number only, do not type unit).

Exercise: Return reported Selectivity = (kpol/Kd) natural nucleotide/(kpol/Kd) nucleotide analogue (discrimination); argument: Nc1ncnc2c1ncn2CCOCP(O)(=S)OP(=O)(O)OP(=O)(O)O (stereo not shown) [Compound 12]
Solution: 14.5

Exercise: Try Nc1ncnc2c1ncn2CCOCP(=O)(O)OP(=O)(O)OP(=O)(O)O [PMEApp, PMEA diphosphate] next.
Solution: 7.8

Exercise: Follow-up item: C[C@@H](Cn1cnc2c(N)ncnc21)OCP(=O)(O)OP(=O)(O)OP(=O)(O)O [PMPApp, PMPA diphosphate]
Solution: 22.3

Exercise: // same read-out, input: C[C@H](Cn1cnc2c(N)ncnc21)OCP(O)(=S)OP(=O)(O)OP(=O)(O)O (stereo partly shown) [Compound 13]
Solution: 59.8
